src = PubChem BioAssay AID2012

target: Eukaryotic translation initiation factor 4H (Homo sapiens); experiment: human eIF4H binding inhibitors, primary screen, translation initiation inhibitor project, biochemical, uHTS, fluorescence polarization (AID 2012); details: eIF4H fluorescence polarization binding assay; confirmation average; at 20 µM; stronger effect = higher value;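 also: calls also rest on retests at 20 µM and on dose response follow-up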
In all, about 290,000 compounds went through this assay and about 2,700 (0.93%) were called active. Only a selection was taken, and actives are over-represented in it overall.
In this section, each of the compounds is paired with its reported inhibition.
Kindly answer with a numeric value in %, unit omitted.

// solved cases for inhibition follow
[[record]]
compound = "Cc1ccc(Cc2cnc(N)s2)o1"
target_under_test = "Eukaryotic translation initiation factor 4H (Homo sapiens)"
property_label = "inhibition"
unit_tag = "%"
endpoint_result = 93.7

[[record]]
compound = "CCCc1nc(-c2cc3cc(C)ccc3[nH]c2=O)no1"
target_under_test = "Eukaryotic translation initiation factor 4H (Homo sapiens)"
property_label = "inhibition"
unit_tag = "%"
endpoint_result = 79.5

[[record]]
compound = "O=C(Cn1cnc2ccccc21)N/N=C/c1ccco1"
target_under_test = "Eukaryotic translation initiation factor 4H (Homo sapiens)"
property_label = "inhibition"
unit_tag = "%"
endpoint_result = 2.9

[[record]]
compound = "NS(=O)(=O)c1ccc(NC(=O)COC(=O)c2ccco2)cc1"
target_under_test = "Eukaryotic translation initiation factor 4H (Homo sapiens)"
property_label = "inhibition"
unit_tag = "%"
endpoint_result = 80.1

[[record]]
compound = "N/C(=N\\OS(=O)(=O)c1cccc([N+](=O)[O-])c1)c1ccncc1"
target_under_test = "Eukaryotic translation initiation factor 4H (Homo sapiens)"
property_label = "inhibition"
unit_tag = "%"
endpoint_result = 88.7

[[record]]
compound = "Cc1cccc(NC(=O)c2sc3nc4c(c(-c5ccco5)c3c2N)CCC4)c1"
target_under_test = "Eukaryotic translation initiation factor 4H (Homo sapiens)"
property_label = "inhibition"
unit_tag = "%"
endpoint_result = 90.9

[[record]]
compound = "COc1cccc(C2Nc3cccc4cccc(c34)N2)c1"
target_under_test = "Eukaryotic translation initiation factor 4H (Homo sapiens)"
property_label = "inhibition"
unit_tag = "%"
endpoint_result = 98.5

[[record]]
compound = "Cc1ccc(C(C[N+](=O)[O-])c2c(C)cc3ccccn23)cc1 (configuration not stated)"
target_under_test = "Eukaryotic translation initiation factor 4H (Homo sapiens)"
property_label = "inhibition"
unit_tag = "%"
endpoint_result = 84.9


**Q:** Param request: inhibition | system Eukaryotic translation initiation factor 4H (Homo sapiens) | item COCCCNC(=O)Cc1ccc(-n2c(C)nc3cccnc32)cc1
**A:** 13.7

**Q:** Param request: inhibition | system Eukaryotic translation initiation factor 4H (Homo sapiens) | item COC(=O)c1ccc(COc2ccc(/C=C/C(=O)c3ccc(OC)c(CSCC(=O)O)c3)cc2OC)cc1
**A:** 68.7

**Q:** Param request: inhibition | system Eukaryotic translation initiation factor 4H (Homo sapiens) | item O=C(N/N=C/c1ccc([N+](=O)[O-])o1)c1cccc(S(=O)(=O)N2CCOCC2)c1
**A:** 78.6

**Q:** Param request: inhibition | system Eukaryotic translation initiation factor 4H (Homo sapiens) | item CCN(CC)CCOc1ccc2c(c1)C(=NNC(=O)c1ccccn1)c1cc(OCCN(CC)CC)ccc1-2
**A:** 83.6

**Q:** Param request: inhibition | system Eukaryotic translation initiation factor 4H (Homo sapiens) | item COc1ccc(Nc2ccc([N+](=O)[O-])cn2)cn1
**A:** 20.1

**Q:** Param request: inhibition | system Eukaryotic translation initiation factor 4H (Homo sapiens) | item CC(C)(C)C1C/C(=C/c2ccco2)C(=O)/C(=C/c2ccco2)C1 (configuration not stated)
**A:** 82.6

**Q:** Param request: inhibition | system Eukaryotic translation initiation factor 4H (Homo sapiens) | item Clc1ccccc1CSc1nnc(-c2ccco2)c(-c2ccco2)n1
**A:** 94.4

**Q:** Param request: inhibition | system Eukaryotic translation initiation factor 4H (Homo sapiens) | item COc1ccc(NS(=O)(=O)c2cc(NC(=O)C3CCCCC3)ccc2N2CCOCC2)cc1
**A:** 81.1

**Q:** Param request: inhibition | system Eukaryotic translation initiation factor 4H (Homo sapiens) | item CC(/C=N/NC(=O)c1cc(-c2ccc3ccccc3c2)n[nH]1)=C\c1ccco1
**A:** -19.6

====

In this section, each of the compounds is paired with its reported inhibition.
target: Eukaryotic translation initiation factor 4H (Homo sapiens) (UniProt Q15056); test: human eIF4H binding inhibitors, primary screen, translation initiation inhibitor project, biochemical, uHTS, fluorescence polarization (AID 2012); details: eIF4H fluorescence polarization binding assay; at 35 µM; stronger effect = higher value;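 also: calls also rest on retests at 20 µM and on dose response follow-up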
The campaign covered roughly 290,000 compounds. About 2,700 (0.93%) were called active. The full list was thinned out, with actives kept by preference.
Kindly answer with a numeric value in %, unit omitted.

// solved cases for inhibition follow
[[record]]
compound = "O=C(NC1CCCC1)C(=O)c1c[nH]c2ccccc12"
endpoint_result = -6.1

[[record]]
compound = "O=C(/C=C/c1ccco1)NC(=S)N1CCCCC1"
endpoint_result = 5.7

[[record]]
compound = "Cc1ccc(CNC(=O)C(=O)c2cn(CC(=O)N3CCOCC3)c3ccccc23)cc1"
endpoint_result = -6.1

[[record]]
compound = "CN1/C(=C\\C=C2\\N=C(c3ccc(F)cc3)OC2=O)C(C)(C)c2ccccc21"
endpoint_result = 128

[[record]]
compound = "CN1/C(=C\\C(=O)c2oc3ccccc3c2N)C(C)(C)c2ccccc21"
endpoint_result = -2.5

[[record]]
compound = "COC(=O)c1ccccc1NC(=O)CSc1n[nH]c(-c2ccncc2)n1"
endpoint_result = 3.3

[[record]]
compound = "Cn1cccc1C(=O)N1CCc2ccccc2C1"
endpoint_result = -1.9

[[record]]
compound = "COc1cccc(NC(=O)C(=O)c2cn(CC(=O)N3CCOCC3)c3ccccc23)c1"
endpoint_result = -12.2

[[record]]
compound = "COc1ccc(-c2nnn(CC(=O)N(CCO)C(C(=O)NC3CCCC3)c3ccc(F)cc3)n2)cc1 (configuration not stated)"
endpoint_result = -0.3

[[record]]
compound = "CCCOc1ccc(/C=N/NC(=O)C2CC2)c(OCCC)c1"
endpoint_result = -12.1


**Q:** State, in one line, measured inhibition of Cc1cccc(N2CCN(C(=O)/C=C/c3ccco3)CC2)c1C
**A:** 57.3

**Q:** State, in one line, measured inhibition of O=C(N/N=C/c1cccc([N+](=O)[O-])c1)c1ccncc1
**A:** 0.8

**Q:** State, in one line, measured inhibition of CCS(=O)(=O)N1CCC(N2CCN(c3ccccc3)CC2)CC1
**A:** 7.8

**Q:** State, in one line, measured inhibition of S=C(NCCc1ccccc1)N1CCn2cccc2C1c1ccncc1 (configuration not stated)
**A:** 8.3

**Q:** State, in one line, measured inhibition of Cc1cc(C)c2c3c(sc2n1)C(c1ccccc1)C(C#N)=C(N)O3 (configuration not stated)
**A:** 1

====

In this section, each of the compounds is paired with its reported inhibition.
target: Eukaryotic translation initiation factor 4H (Homo sapiens) (UniProt Q15056); test: human eIF4H binding inhibitors, primary screen, translation initiation inhibitor project, biochemical, uHTS, fluorescence polarization (AID 2012); details: eIF4H fluorescence polarization binding assay; at 35 µM; stronger effect = higher value;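 also: calls also rest on retests at 20 µM and on dose response follow-up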
Among all 290,000 compounds or so, about 2,700 (0.93%) were called active. For the sample, actives were picked, then their nearest neighbours and some compounds at random.
Kindly answer with a numeric value in %, unit omitted.

**Q:** State, in one line, measured inhibition of O=C(/C=C/c1ccc2c(c1)OCO2)NCc1ccc(F)cc1
**A:** 4.7

**Q:** State, in one line, measured inhibition of O=C(CCc1nnc2ccc(NCc3ccccc3Cl)nn12)NCC1CCN(C2CCCC2)C1 (stereo not given)
**A:** 13.5

**Q:** State, in one line, measured inhibition of Cc1ccc(CN2CCNC(=O)C2CC(=O)NCc2csc(C(C)C)n2)cc1 (stereo not given)
**A:** -5.6

**Q:** State, in one line, measured inhibition of CCC(Oc1ccccc1C)C(=O)Nc1ccc(S(=O)(=O)Nc2cc(C)on2)cc1 (stereo not given)
**A:** -3.3

**Q:** State, in one line, measured inhibition of O=C(/C=C/c1ccc2c(c1)OCO2)NCc1cn2cc(Cl)ccc2n1
**A:** -3.3

====

biological target: Eukaryotic translation initiation factor 4H (Homo sapiens); test: human eIF4H binding inhibitors, primary screen, translation initiation inhibitor project, biochemical, uHTS, fluorescence polarization (AID 2012); settings: eIF4H fluorescence polarization binding assay; at 35 µM;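 also: calls also rest on retests at 20 µM and on dose response follow-up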
Screen size: about 290,000 compounds; about 2,700 (0.93%) were called active. The rule behind the calls is not given here. Shown is part of a subset that was picked to be rich in actives.
Lab note: assign the record to one of Y for active, N for inactive

A selection of reference data follows.
[[record]]
compound = "O=C1CCCC(O)=C1N=Nc1ccc2ncsc2c1"
label_value = "Y"

[[record]]
compound = "O=C1CC(N2CCN(c3ccc(F)cc3)CC2)C(=O)N1c1ccccc1 (stereo unspecified)"
label_value = "N"

[[record]]
compound = "CN(C)S(=O)(=O)c1ccc(N/C=C(\\[N+](=O)[O-])S(=O)(=O)c2ccccc2)cc1"
label_value = "N"

[[record]]
compound = "O=C1CCCC(O)=C1N=Nc1ccc(S(=O)(=O)N2CCOCC2)cc1"
label_value = "N"

[[record]]
compound = "Cc1ccc(C(=O)c2coc3ccc(O)c(CN(C)C)c23)cc1"
label_value = "N"


Then there is this compound:
**Q:** Identify the outcome logged in this assay for the compound shown: c1ccc(C2=Nc3cccc4cccc(c34)N2)cc1
**A:** N
